target: JAK2 (a.a. 828-1132) (Homo sapiens); construct: JAK2 (a.a. 828-1132); His tag (N); assay: In vitro JAK kinase assay (HTRF, phosphorylation of biotinylated peptide), JAK2; assay type: biochemical; settings: Table F; 1 mM ATP
Sequence (O60674 828-1132): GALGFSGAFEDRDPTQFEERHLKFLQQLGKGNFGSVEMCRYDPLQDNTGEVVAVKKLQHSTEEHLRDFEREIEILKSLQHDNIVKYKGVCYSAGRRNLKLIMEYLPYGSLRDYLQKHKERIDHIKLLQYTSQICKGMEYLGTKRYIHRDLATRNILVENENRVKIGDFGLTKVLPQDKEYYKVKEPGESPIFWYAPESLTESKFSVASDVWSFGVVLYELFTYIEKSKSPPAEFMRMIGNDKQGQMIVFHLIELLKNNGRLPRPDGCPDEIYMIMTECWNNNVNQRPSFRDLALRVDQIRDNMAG
# IC50 values compiled below

MOLECULE	PROPERTY	VAL
CN(C)Cc1cc(OC2CCN([C@H]3C[C@](CC#N)(n4cc(-c5ncnc6[nH]ccc56)cn4)C3)CC2)cc(C(F)(F)F)c1	IC50	> 100 nM

Ask: Bench note: what IC50 did `CC(C)(O)c1cc(C(=O)N2CCN([C@H]3C[C@](CC#N)(n4cc(-c5ccnc6[nH]ccc56)cn4)C3)CC2)nc(C(F)(F)F)n1` show?
Result: 25 to 100 nM

Ask: Also `N#CC[C@]1(n2cc(-c3ncnc4[nH]ccc34)cn2)C[C@H](N2CCN(C(=O)c3cc(CO)nc(C(F)(F)F)n3)CC2)C1` , if possible.
Result: 25 to 100 nM

Ask: Also `N#CC[C@]1(n2cc(-c3ncnc4[nH]ccc34)cn2)C[C@H](N2CCC(Oc3cc(CN4CCC4)nc(C(F)(F)F)n3)CC2)C1` , if possible.
Result: > 100 nM

Ask: Also `C[C@H](NC(=O)N1CCN([C@H]2C[C@](CC#N)(n3cc(-c4ncnc5[nH]ccc45)cn3)C2)CC1)C(F)(F)F` , if possible.
Result: > 100 nM

Ask: Also `N#CC[C@]1(n2cc(-c3ncnc4[nH]ccc34)cn2)C[C@H](N2CCN(C(N)=O)CC2)C1` , if possible.
Result: 25 to 100 nM

Ask: Also `CC(C)[C@H](C)NC(=O)N1CCN([C@H]2C[C@](CC#N)(n3cc(-c4ncnc5[nH]ccc45)cn3)C2)CC1` , if possible.
Result: 25 to 100 nM

Ask: Also `N#CC[C@]1(n2cc(-c3ncnc4[nH]ccc34)cn2)C[C@H](N2CCC(Oc3cc(CN4CCOCC4)nc(C(F)(F)F)n3)CC2)C1` , if possible.
Result: > 100 nM

Ask: Also N#CC[C@]1(n2cc(-c3ncnc4[nH]ccc34)cn2)C[C@H](N2CCN(C(=O)N[C@H]3CCC[C@H]3O)CC2)C1 (single isomer, unassigned) , if possible.
Result: 25 to 100 nM

Ask: Also `N#CC[C@]1(n2cc(-c3ncnc4[nH]ccc34)cn2)C[C@H](N2CCN(C(=O)N3CC[C@H](O)C3)CC2)C1` , if possible.
Result: > 100 nM

Ask: Also `CN(C(=O)N1CCN([C@H]2C[C@](CC#N)(n3cc(-c4ncnc5[nH]ccc45)cn3)C2)CC1)C1CC1` , if possible.
Result: 25 to 100 nM

Ask: Also `CCNCc1cc(OC2CCN([C@H]3C[C@](CC#N)(n4cc(-c5ncnc6[nH]ccc56)cn4)C3)CC2)nc(C(F)(F)F)n1` , if possible.
Result: 25 to 100 nM

Ask: Also `N#CC[C@]1(n2cc(-c3ncnc4[nH]ccc34)cn2)C[C@@H](N2CCN(C(=O)c3cc(C4(N)CCC4)nc(C(F)(F)F)n3)CC2)C1` , if possible.
Result: < 10 nM
